Some sequences, each annotated with its measured recombinant UMI read abundance (log10).
ASSAY_DETAILS: recombinant UMI read abundance after kanamycin selection (control-corrected) (log10(CPM+1)); higher = more efficient recombination; extreme values may be limits of the assay; sequences stand for … in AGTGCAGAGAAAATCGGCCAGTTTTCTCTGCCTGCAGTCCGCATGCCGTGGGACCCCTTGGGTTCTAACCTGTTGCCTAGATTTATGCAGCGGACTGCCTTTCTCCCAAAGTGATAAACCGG…AGGTTGGTTTCACT; site = the 11-nt donor

| SEQUENCE_DATA | recombinant UMI read abundance (log10) |
| --- | --- |
| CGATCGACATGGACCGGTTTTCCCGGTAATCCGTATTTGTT (site CGTTCGACTAA) | 0.0124 |
| GATTATGCATGGACCGGTTTTCCCGGTAATCCGTATTTGGA (site TATTATGCTTC) | 0.882 |
| GTTCGGGCATGGACCGGTTTTCCCGGTAATCCGTATTTGCA (site GTTCGAGCTTG) | 1.27 |
| GACGGCCCATGGACCGGTTTTCCCGGTAATCCGTATTTGTT (site AACGGCCCTAA) | 0.00882 |
| GAGGTCACATGGACCGGTTTTCCCGGTAATCCGTATTTGAT (site GAGATCACTAT) | 1.36 |
| ACAGTGGCATGGACCGGTTTTCCCGGTAATCCGTATTTGCG (site ACAGTGGCTCG) | 1.93 |
| CTTCTAACATGGACCGGTTTTCCCGGTAATCCGTATTTGGA (site CTTCTAACTTC) | 0.0115 |
| ACATCTACATGGACCGGTTTTCCCGGTAATCCGTATTTGAG (site ACATCTACTCA) | 0.0306 |
| CCAGGTGCATGGACCGGTTTTCCCGGTAATCCGTATTTGAT (site CCAGGTGCTTT) | 0.206 |
| CCCGGTCCATGGACCGGTTTTCCCGGTAATCCGTATTTGCT (site CCCGGTCCTTG) | 0 |
| ACGATTGCATGGACCGGTTTTCCCGGTAATCCGTATTTGGA (site ACGATTGCTTC) | 1.97 |
| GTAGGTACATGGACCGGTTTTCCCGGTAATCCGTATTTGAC (site GTAGGTTCTGT) | 1.76 |
| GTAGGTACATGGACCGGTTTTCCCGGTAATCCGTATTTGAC (site CTAGGTACTGT) | 1.95 |
| ATGAGCACATGGACCGGTTTTCCCGGTAATCCGTATTTGGA (site ATGAGCACTTC) | 0.82 |
| CCTTCTGCATGGACCGGTTTTCCCGGTAATCCGTATTTGGA (site CCTTCTGCTTC) | 0.00377 |
| ACGGTATCATGGACCGGTTTTCCCGGTAATCCGTATTTGCG (site ACAGTATCTTG) | 2.27 |
| CGCAGTACATGGACCGGTTTTCCCGGTAATCCGTATTTGCT (site CGCGGTACTAG) | 0.749 |
| TGTGATGCATGGACCGGTTTTCCCGGTAATCCGTATTTGAC (site TGTGATGCTGT) | 1.65 |
| CGGACTTCATGGACCGGTTTTCCCGGTAATCCGTATTTGCT (site CGGACCTCTAG) | 1.61 |
| TCGGCCCCATGGACCGGTTTTCCCGGTAATCCGTATTTGTT (site TCGGCCCCTAA) | 0.0126 |
| TGGGAGTCATGGACCGGTTTTCCCGGTAATCCGTATTTGCC (site TGGGAGTCTGG) | 2.34 |
| AGTGGAACATGGACCGGTTTTCCCGGTAATCCGTATTTGTT (site CGTGGAACTAA) | 0.295 |
| ATAAGGCCATGGACCGGTTTTCCCGGTAATCCGTATTTGCC (site ATAAGGCCTGG) | 1.07 |
| GAGGTATCATGGACCGGTTTTCCCGGTAATCCGTATTTGCT (site GAGGTATCTAG) | 2.57 |
| GGTACGTCATGGACCGGTTTTCCCGGTAATCCGTATTTGCT (site GGTACGTCTAC) | 0.0226 |
| GGATGGACATGGACCGGTTTTCCCGGTAATCCGTATTTGCC (site GGATTGACTGG) | 0 |
| GAAGATCCATGGACCGGTTTTCCCGGTAATCCGTATTTGTT (site GAAGATGCTAA) | 0.00882 |
| AGCTTAGCATGGACCGGTTTTCCCGGTAATCCGTATTTGGG (site AGCTCAGCTCC) | 0.0187 |
| TTCCAGGCATGGACCGGTTTTCCCGGTAATCCGTATTTGAG (site TTCCAGGCTCT) | 0.0112 |
| CTTCGCTCATGGACCGGTTTTCCCGGTAATCCGTATTTGTA (site CTTCACTCTTA) | 1.14 |
| CGGGAAACATGGACCGGTTTTCCCGGTAATCCGTATTTGCA (site CGGGAAACTTG) | 0.914 |
| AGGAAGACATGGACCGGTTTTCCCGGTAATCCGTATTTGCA (site AGTAAGACTGG) | 0 |
| CGCCGTACATGGACCGGTTTTCCCGGTAATCCGTATTTGCG (site CGCCGTACTGG) | 0 |
| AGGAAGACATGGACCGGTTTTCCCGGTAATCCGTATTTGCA (site AGGAAGTCTTA) | 0.81 |
| CCATTAGCATGGACCGGTTTTCCCGGTAATCCGTATTTGTG (site CCATTAGCTCA) | 0.183 |
| GTGCCGACATGGACCGGTTTTCCCGGTAATCCGTATTTGAC (site GTGCCGACTGT) | 2.4 |

---

ASSAY_DETAILS: recombinant barcode read abundance after kanamycin selection (control-corrected) (log10(CPM+1)); higher = more efficient recombination; sequences stand for … in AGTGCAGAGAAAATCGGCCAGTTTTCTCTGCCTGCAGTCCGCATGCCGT…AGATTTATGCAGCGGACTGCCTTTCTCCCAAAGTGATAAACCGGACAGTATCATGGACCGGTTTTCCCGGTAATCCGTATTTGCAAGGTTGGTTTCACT; site = the 11-nt target
Listed here: items and their measured recombinant barcode read abundance (log10).
QUANTITY: recombinant barcode read abundance (log10)

| SEQUENCE_DATA | REPORTED |
| --- | --- |
| ATGAGGACTTGGGTTCTAACCTGTTGCGT (site ATGAGGACTAC) | 2.45 |
| CTAATACCTTGGGTTCTAACCTGTTGCGT (site CTCATACCTAC) | 0.0518 |
| ATCTTGTCTTGGGTTCTAACCTGTTGCGG (site ATCTTGTCTCC) | 1.83 |
| AATTAGTCTTGGGTTCTAACCTGTTGCGG (site AATTAGTCTCC) | 2.2 |
| CTCGCCACTTGGGTTCTAACCTGTTGCCT (site GAGTTGTCTCC) | 0.0691 |
| ATCGGAGCTTGGGTTCTAACCTGTTGCCT (site ATCGGAACTAG) | 0.196 |
| CATTGTCCTTGGGTTCTAACCTGTTGCGT (site CATTGTCCTAC) | 1.38 |
| CCTAGATCTTGGGTTCTAACCTGTTGCCT (site CCTAGAACTAG) | 0.107 |
| GCTAAGTCTTGGGTTCTAACCTGTTGCGT (site GCTAAGTCTAC) | 2.61 |
| CAAAGGCCTTGGGTTCTAACCTGTTGCCT (site CAACGGCCTAG) | 0.0335 |
| ATCTTGTCTTGGGTTCTAACCTGTTGCCG (site ATCTTGTCTCG) | 0.0848 |
| TAGGTATCTTGGGTTCTAACCTGTTGCAG (site CCTTGTGCTAC) | 0.156 |
| TAGCATACTTGGGTTCTAACCTGTTGCCA (site TAGCATACTGG) | 0.359 |
| CGGCGTACTTGGGTTCTAACCTGTTGCCT (site CGACGTACTAG) | 0.14 |
| TTCACGCCTTGGGTTCTAACCTGTTGCCT (site TTCTCGCCTAG) | 0.214 |
| TAAATAGCTTGGGTTCTAACCTGTTGCCT (site TAAATAGCTAG) | 0.881 |
| AGGGTTCCTTGGGTTCTAACCTGTTGCTT (site AGGGTTCCTAA) | 2.05 |
| TAGGAGACTTGGGTTCTAACCTGTTGCGT (site TAGGAGACTAC) | 2.56 |
| TAATCCTCTTGGGTTCTAACCTGTTGCCT (site CAATCCTCTAG) | 0.0292 |
| TAGCTCCCTTGGGTTCTAACCTGTTGCCT (site TAGCTCCCTTG) | 0.016 |
| GCTGAGGCTTGGGTTCTAACCTGTTGCCA (site GCTGAGGCTTG) | 0.636 |
| TGAAATACTTGGGTTCTAACCTGTTGCCT (site TGAAATACTAG) | 0.232 |
| TGAAGTCCTTGGGTTCTAACCTGTTGCGG (site TGAAGTCCTCC) | 1.25 |
| GTATGACCTTGGGTTCTAACCTGTTGCCT (site GTATGAGCTAG) | 0.0609 |
| CTAAAACCTTGGGTTCTAACCTGTTGCCT (site CTAAAACCTAG) | 1 |
| GGTGCTCCTTGGGTTCTAACCTGTTGCAG (site GGTGCTCCTTT) | 0.0255 |
| TCGTACCCTTGGGTTCTAACCTGTTGCGA (site TCGCACCCTTC) | 0.0875 |
| TGGAGTACTTGGGTTCTAACCTGTTGCTT (site TGTAGTACTAG) | 0.0535 |
| GCTGTATCTTGGGTTCTAACCTGTTGCCT (site ACTGTATCTAG) | 0.288 |
| TAGAACTCTTGGGTTCTAACCTGTTGCCT (site TAGAACTCTCG) | 0.0641 |
| CGAGCTCCTTGGGTTCTAACCTGTTGCTT (site CGAGCTCCTAG) | 1.1 |
| TAGCTGACTTGGGTTCTAACCTGTTGCCT (site TAGCTGACTAG) | 1.28 |
| GGTATGTCTTGGGTTCTAACCTGTTGCTT (site GGTATGTCTAA) | 0.641 |
| TACCCATCTTGGGTTCTAACCTGTTGCCT (site TAGCCATCTAG) | 0.106 |
| GTTTGCTCTTGGGTTCTAACCTGTTGCCT (site GTTTGTTCTAG) | 0.115 |
| AGGTTCCCTTGGGTTCTAACCTGTTGCTA (site AGGTTCCCTTA) | 1.32 |
| GTAGTACCTTGGGTTCTAACCTGTTGCCT (site GTAGTATCTAG) | 0.545 |
| CAAGTTGCTTGGGTTCTAACCTGTTGCCT (site CAAGTGGCTAG) | 0.227 |
| AGCAGTACTTGGGTTCTAACCTGTTGCTA (site AGCAGTACTTA) | 0.299 |
| ACTGATCCTTGGGTTCTAACCTGTTGCCT (site ACTGATACTAG) | 0.00756 |
| AATGGTCCTTGGGTTCTAACCTGTTGCCA (site CTAATATCTAT) | 0.337 |
| CTGGGTTCTTGGGTTCTAACCTGTTGCCT (site CGGGGTTCTAG) | 0.312 |
